Tested on: HCC-2998 colon
Experiment: NCI-60 one-dose screen, 48 h (100 = growth as untreated, 0 = no growth, -100 = all killed)
Conditions: 10 µM unless noted
This is part of a sample that, as a whole, favours compounds with a hit. Of some 83,000 tested, about 20% had one in any assay.
Mark criterion met only for growth values smaller than 70%; exact matches and larger values are criterion not met.

Given the entry `C=C1C(=O)O[C@H]2[C@H]1CC/C(COC(=O)/C=C\C(=O)NCc1ccc(Cn3c(=O)sn(-c4ccc(Cl)cc4)c3=O)cc1)=C\CC[C@@]1(C)O[C@@H]21` , would its reported growth be below 70%?
criterion met

Given the entry `N#C/C=C(\c1ccc([N+](=O)[O-])cc1)n1nnc2cc(Cl)c(Cl)cc21` , would its reported growth be below 70%?
criterion met

Given the entry `COc1ccc(-c2nc3ccccn3c2/C=C/C(=O)c2cc(OC)c(OC)c(OC)c2)cc1` , would its reported growth be below 70%?
criterion met

Given the entry `COc1cc(NC(=O)c2cccc(-c3cc(=O)c4c(O)c(OC)c(OC)cc4o3)c2)cc(OC)c1OC` , would its reported growth be below 70%?
criterion met

Given the entry `NS(=O)(=O)Oc1ccc(-c2sc3cc(O)ccc3c2C(=O)c2ccc(OCCN3CCCCC3)cc2)cc1` , would its reported growth be below 70%?
criterion met

Given the entry `COc1ccc2cc(-c3ccc(C(=O)NN)c(C)n3)ccc2c1` , would its reported growth be below 70%?
criterion not met

Given the entry `CCN(CC)CCOC(=O)N1c2ccccc2Sc2ccccc21` , would its reported growth be below 70%?
criterion not met

Given the entry `Cc1cc(=O)c2cc3nc(-c4cccnc4)oc3c(Br)c2o1` , would its reported growth be below 70%?
criterion not met

Given the entry `Cc1ccc(/C(=N\N=C(N)N)c2ccccc2)cc1` , would its reported growth be below 70%?
criterion met

====

Tested on: SK-MEL-2 melanoma
Test: NCI-60 one-dose screen, 48 h (100 = growth as untreated, 0 = no growth, -100 = all killed)
Details: 10 µM unless noted
Compounds without any hit were thinned out: in the full panel of roughly 83,000, 20% have a hit.
Mark label 1 only for growth values smaller than 70%; exact matches and larger values are label 0.

Given the entry `COc1ccc(OC)c(Nc2nc3nonc3nc2Nc2cc(OC)ccc2OC)c1` , would its reported growth be below 70%?
label 1

Given the entry `COc1cc2c(cc1OC)-c1ccc3cc4c(cc3c1N(CCCn1ccnc1)C2)OCO4` , would its reported growth be below 70%?
label 1

Given the entry `Nc1c(C(=O)c2ccc(Cl)s2)sc2nc3c(cc12)CCCC3` , would its reported growth be below 70%?
label 0

Given the entry `CC(=O)c1sc(-c2ccccc2)cc1N` , would its reported growth be below 70%?
label 0

Given the entry `COc1ccc(/C=C(\C#N)n2nnc3cc(F)c(F)cc32)c(OC)c1OC` , would its reported growth be below 70%?
label 0

Given the entry `Nc1ccc2c(S(=O)(=O)O)ccc(S(=O)(=O)O)c2c1` , would its reported growth be below 70%?
label 0

Given the entry N#Cc1c(-c2ccccc2)nc(SCC2CO2)nc1N1CCOCC1 (stereo not given) , would its reported growth be below 70%?
label 1

Given the entry `COc1ccc(-c2nc3ncccn3c2/C=C/C(=O)c2cc(OC)c(OC)c(OC)c2)cc1` , would its reported growth be below 70%?
label 1

Given the entry C=C(C)[C@@H]1CC[C@]2(CNCCO)CC[C@]3(C)[C@H](CC[C@@H]4[C@@]5(C)CCC(N)[C@@](C)(CO)[C@@H]5CC[C@]43C)[C@@H]12 (stereo not given in full) , would its reported growth be below 70%?
label 1

Given the entry `Cc1cc(N(CCCNc2ccnc3cc(Cl)ccc23)Cc2ccccn2)nc(N2CCOCC2)n1` , would its reported growth be below 70%?
label 0

====

For each record, write down the corresponding growth.
Tested on: SF-268 CNS
Assay: NCI-60 one-dose screen, 48 h (100 = growth as untreated, 0 = no growth, -100 = all killed)
Details: 10 µM unless noted
About 83,000 compounds went through this panel and 20% of them were active in at least one assay; those are over-represented in the sample as a whole.
Express your answer in %, writing the number without its unit.

Give the measured growth of `O=c1cc(-c2ccc(OCc3ccccc3)cc2)oc2c(I)c(OCc3ccccc3)cc(OCc3ccccc3)c12` .
99

Give the measured growth of `COc1cc2c(cc1OC)-c1ccc3cc4c(cc3c1N(CCCn1ccnc1)C2)OCO4` .
34.4

Give the measured growth of `CCCc1nc2ccccn2c1Nc1ccc(C(=O)NO)cc1` .
94.2

Give the measured growth of COc1cccc(CCC2CCCN(c3cc(C)nc(N)n3)C2)c1 (centres undefined) .
42.6

Give the measured growth of `C=C1C(=O)O[C@H]2[C@H]1CC/C(COC(=O)/C=C\C(=O)NCc1ccc(Cn3c(=O)sn(CCCI)c3=O)cc1)=C\CC[C@@]1(C)O[C@@H]21` .
-81.7

Give the measured growth of `O=C(Oc1ccc([N+](=O)[O-])cc1)c1ccc(CBr)cc1` .
100

Give the measured growth of CCCCOC(=O)c1ccc(NC(=O)C(C)N2CCOCC2)cc1 (centres undefined) .
103

Give the measured growth of `CN(C)S(=O)(=O)n1cnc([C@@H]2[C@@H]3C(=O)OC[C@@H]3C[C@]23N=CN(Cc2ccccc2)C3=O)c1` .
95.6

Give the measured growth of `C[C@@H]1C(=O)N(C[C@@H](Cc2ccccc2)NC(=O)OCc2ccccc2)[C@]1(Cc1ccccc1)C(=O)OCc1ccccc1` .
56.7

====

System: NCI-H23 lung
Test: NCI-60 one-dose screen, 48 h (100 = growth as untreated, 0 = no growth, -100 = all killed)
Details: 10 µM unless noted
This is part of a sample that, as a whole, favours compounds with a hit. Of some 83,000 tested, about 20% had one in any assay. The source made the active and inactive calls. The calls were made as follows: active = growth percent below 10; inactive = the rest.
Assay Endpoint: growth

Give the measured growth of `COc1ccc(OC)c(/C=C2\COc3ccc(O)c(O)c3C2=O)c1` .
48.9% (inactive)

Give the measured growth of O=C1C(Cl)C(c2ccccc2Cl)N1n1cnnc1 (stereo unspecified) .
101% (inactive)

Give the measured growth of CCOC(=O)C1C(=O)C=C(c2cnccn2)CC1c1ccc(OC)c(OC)c1 (stereo unspecified) .
95.6% (inactive)

Give the measured growth of `COc1ccc(/C=N/NC(=O)Cn2c(-c3ccc(S(C)(=O)=O)cc3)nc3cc(Cl)ccc32)cc1` .
29.9% (inactive)

Give the measured growth of `CSc1ccc(Cl)c(C(=O)Nc2sccc2C(N)=O)c1` .
97.9% (inactive)

Give the measured growth of `O=S(=O)(Cc1ccccc1)c1nc2ccccc2s1` .
56.3% (inactive)

Give the measured growth of `O=S(=O)(NCCNc1cc(-c2c(-c3cccc(O)c3)nc3sccn23)ccn1)c1ccc(Cl)cc1` .
79.1% (inactive)

Give the measured growth of `CN(CCC(=O)/C(=C\c1ccccc1)c1ccc(Cl)cc1)Cc1ccccc1` .
29.2% (inactive)

Give the measured growth of `C(=C\c1nc2ccccc2[nH]1)/c1nc2ccccc2[nH]1` .
96.5% (inactive)

Give the measured growth of `CCCCCCNCc1cc(C(C)(C)C)cc(CNCCCCCC)c1O` .
-8.06% (active)

Give the measured growth of `NC(N)=N/N=C/c1ccc(Br)cc1` .
56.4% (inactive)

====

System: RXF 393 renal
Test: NCI-60 one-dose screen, 48 h
Settings: 10 µM unless noted
The panel holds about 83,000 compounds, 20% with a hit somewhere; the sample as a whole holds those more often. The source made the active and inactive calls. How the source made its calls: active means growth percent below 10; inactive means the rest.
One label from this list, please: Y = active, N = inactive

Just curious, what result did `CO[C@H]1/C=C/O[C@@]2(C)Oc3c(C)c(O)c4c(c3C2=O)C(=O)C(/C=N/N(c2ccccc2)c2ccccc2)=C(NC(=O)/C(C)=C\C=C\[C@H](C)[C@H](O)[C@@H](C)[C@@H](O)[C@@H](C)[C@H](OC(C)=O)[C@@H]1C)C4=O` get here?
Y

Just curious, what result did `Nc1ccc2c(S(=O)(=O)O)ccc(S(=O)(=O)O)c2c1` get here?
N

Just curious, what result did `CC(C)c1ccc(C(=O)OC(=O)c2ccc(C(C)C)cc2)cc1` get here?
N

Just curious, what result did `COc1cc2c(c(OC)c1OC)C(=O)/C(=C/c1cc(C)c(O)c(C)c1)S2` get here?
Y

====

Tested on: HS 578T breast
Test: NCI-60 one-dose screen, 48 h
Conditions: 10 µM unless noted
Experimental: Growth inhibition of the HS 578T human tumor cell line is measured as a screen for anti-cancer activity. Cells are grown in 96 well plates and exposed to the test compound for 48 hours. Compounds are tested at a single concentration, which is 10^-5 M for most compounds. The reported endpoint is percent growth (GI% or GIPRCNT), where numbers from 0 - 100% represent growth inhibition, and numbers from -100% - 0 represent cell death. For example, a value of 40 represents 60% growth inhibition. […]
About 83,000 compounds went through this panel and 20% of them were active in at least one assay; those are over-represented in the sample as a whole. Calls of active or inactive are those of the source. The calls were made as follows: active = growth percent below 10; inactive = the rest.
One label from this list, please: active, inactive

Just curious, what result did `COc1ccc(/C=C2\COc3ccc(O)c(O)c3C2=O)c(OC)c1` get here?
inactive

Just curious, what result did `CCOC(=O)c1ccc(-c2ccc3cc(OC)ccc3c2)nc1C` get here?
inactive

Just curious, what result did `C[C@H]1[C@H](C)CC[C@]2(C(=O)N3CCN(C)CC3)CC[C@]3(C)C(=CC[C@@H]4[C@@]5(C)C/C(=C/c6cccnc6)C(=O)C(C)(C)[C@@H]5CC[C@]43C)[C@H]12` get here?
active

Just curious, what result did `O=C(CC12CC3CC(CC(C3)C1)C2)NCCOCCOCCNC(=O)c1cc2c(o1)C(=O)c1ccccc1C2=O` get here?
active

Just curious, what result did `O=[N+]([O-])c1ccc(-c2cc3c(Nc4ccc(OCc5cccc(Cl)c5)c(Cl)c4)ncnc3s2)cc1` get here?
inactive

Just curious, what result did `COc1cc2c(cc1OC)-c1ccc3cc4c(cc3c1N(CCCN(C)C)C2)OCO4` get here?
inactive

Just curious, what result did `COc1ccc(C(=O)/C=C/c2cc3c(c(OC)c2)OCC(=O)N3)cc1` get here?
inactive

Numbers sourced from PubChem BioAssay (NCI).
